Test system: rats
PROTOCOL: Respiratory depression by blood gas (pCO2) monitoring in rats
Type: in vivo
CONDITION LABEL: rat, 0.30 mg/kg i.v., 8 min.
MEASUREMENT LABEL: Respiratory Depression % Units Baseline pCO2 (%)
Numbers only, in %.

Use these answered entries as a reference point.
{"COMPOUND": "C=CCN1C[C@H](C)N([C@@H](c2ccsc2)c2cccc(O)c2)C[C@H]1C (racemic) [Compound 4]", "TARGET ENTITY": "rats", "REPORTED MEASUREMENT": 91}
{"COMPOUND": "C=CCN1C[C@@H](C)N([C@H](c2ccsc2)c2cccc(O)c2)C[C@@H]1C", "TARGET ENTITY": "rats", "REPORTED MEASUREMENT": 0}
{"COMPOUND": "C=CCN1C[C@@H](C)N([C@@H](c2ccsc2)c2cccc(O)c2)C[C@@H]1C (racemic) [Compound 1]", "TARGET ENTITY": "rats", "REPORTED MEASUREMENT": 25}
{"COMPOUND": "C=CCN1C[C@H](C)N([C@@H](c2ccsc2)c2cccc(O)c2)C[C@H]1C [Compound 5]", "TARGET ENTITY": "rats", "REPORTED MEASUREMENT": 78}
{"COMPOUND": "C=CCN1C[C@@H](C)N([C@@H](c2ccsc2)c2cccc(O)c2)C[C@@H]1C [Compound 3]", "TARGET ENTITY": "rats", "REPORTED MEASUREMENT": 0}

# context switch: different compound, same Respiratory Depression % Units Baseline pCO2
Give Respiratory Depression % Units Baseline pCO2; test system rats; compound "C=CCN1C[C@H](C)N([C@H](c2ccsc2)c2cccc(O)c2)C[C@H]1C" 34
